List of growth inhibition values.
procedure-summary: NCI Yeast Anticancer Drug Screen. Data for the rad52 strain (AID 147);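 note: 0% = growth of vehicle-treated control cultures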
test-settings: S. cerevisiae rad52 mutant growth inhibition; at 1.2 µM; hits give high values
About 79,000 compounds went through this panel and 15% of them were active in at least one assay; those are over-represented in the sample as a whole.
observable: growth inhibition (%)

In [3]: df
Out[3]:
                                    compound         observable  readout_unit  reported_value
 0      CC1(C)CC(=O)C(C=NC(=S)C(N)=S)=C(O)C1  growth inhibition             %             -47
 1  CCCCCCCN(CCCCCCC)CC(=O)c1ccc2cc(Cl)c3ccccc3c2c1  growth inhibition             %               3
 2           Cc1cccc(/C=N/NC(=S)NC2CCCCC2)n1  growth inhibition             %              -8
 3  O=C(NOC(=O)c1ccc([N+](=O)[O-])cc1)c1ccc(Cl)cc1  growth inhibition             %              -1
 4            Nc1ccc(/C=C/c2ccc3cccnc3c2)cc1  growth inhibition             %              -3
 5  O=CC1(F)CC1(c1ccccc1)c1ccccc1 (stereo unspecified)  growth inhibition             %              -2
 6  O=C1SS(=O)c2ccccc21 (stereo unspecified)  growth inhibition             %              11
 7  CC(CN(C)C)C(=O)/C=C/c1ccc(Cl)c(Cl)c1 (stereo unspecified)  growth inhibition             %               7
 8  CCCCN(CCC#N)c1ccc(/C=C/c2ccnc3ccccc23)cc1  growth inhibition             %              -6
 9   CN(C)CC(CN(C)C)C(=O)/C=C/c1ccc(Cl)cc1Cl  growth inhibition             %               0
10        CC(C)(N=Nc1ccc(Cl)cc1)[N+](=O)[O-]  growth inhibition             %              17

###

procedure-summary: NCI Yeast Anticancer Drug Screen. Data for the rad50EPP+ strain (AID 151);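 note: 0% = growth of vehicle-treated control cultures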
test-settings: S. cerevisiae rad50 mutant strain, at 1.2 µM, hits give high values
About 79,000 compounds went through this panel and 15% of them were active in at least one assay; those are over-represented in the sample as a whole.
List of growth inhibition values.
observable: growth inhibition (%)

>>> df
                                   molecule  readout_unit  reported_value
0  c1cc(-c2sc(-c3ccncc3)c(-c3ccncc3)c2-c2ccncc2)ccn1             %               5
1  CO[C@@]1([C@@H](Cl)c2ccccc2)C(=O)N(C)/C(=C\c2ccccc2)C(=O)N1C             %              -1
2  Cc1ccc(NC(=O)CCC(=O)C(C)C(=O)c2ccccc2)c(C)c1 (stereo not drawn)             %              -2

###

procedure-summary: NCI Yeast Anticancer Drug Screen. Data for the bub3 strain (AID 167)
test-settings: S. cerevisiae bub3 mutant strain, at 50.0 µM (retest, dose inferred, filed as 5.0)
Compounds without any hit were thinned out: in the full panel of roughly 79,000, 15% have a hit. The source made the active and inactive calls. Rule as the data show it: active = growth inhibition above about 70%; inactive = the rest.
Classes used: active, inactive

>>> print(df.to_string())
                                    compound     class
 0  CCCCS(=O)(=O)Nc1ccc(Nc2c3ccccc3nc3ccccc23)c(OC)c1    active
 1  NC(CCCCCCCCCCCCC(N)C(=O)c1ccccc1)C(=O)c1ccccc1 (stereo not given)    active
 2  O=C1CC(C(O)(C(F)(F)F)C(F)(F)Cl)CCC1C(O)(C(F)(F)F)C(F)(F)Cl (stereo not given)    active
 3                          Nc1cc2ccccc2cc1N    active
 4                           OC1(C#CI)CCCCC1    active
 5  CCCCCCCCCCCCCCCCCCNc1nc(=O)n(C2CC(OP(=O)(O)OCC3OC(n4cc(F)c(=O)[nH]c4=O)CC3O)C(CO)O2)cc1F (stereo not given)    active
 6  CC(C)N(CCCNc1c2ccccc2nc2cccc([N+](=O)[O-])c12)C(C)C    active
 7  O=C(Oc1ccc([N+](=O)[O-])cc1)c1ccc([N+](=O)[O-])cc1    active
 8  CC1CCC(C2=CSC3CCCCC3N2)CC1 (stereo not given)    active
 9  CO[C@@]1([C@@H](Cl)c2ccccc2)C(=O)N(C)/C(=C\c2ccccc2)C(=O)N1C  inactive
10  Cc1ccc([N+](=O)[O-])c2c(NCCC[N+](C)(C)[O-])c3ccccc3nc12  inactive
11  O=C(Cc1ccccc1)NN1C(=O)C(Cl)C1c1cc(Br)cc(Br)c1O (stereo not given)    active
12      O=C1C=CC(=Nc2cccc3c2-c2ccccc2C3=O)O1    active
13  O=C(c1ccccc1)[C@H]1Nc2ccc(Cl)cc2[C@H]2OCCC[C@@H]12    active
14  CC/C(=C(\c1ccccc1)c1ccc(OCC[N+](C)(C)C)cc1)c1ccccc1  inactive

###

procedure-summary: NCI Yeast Anticancer Drug Screen. Data for the mec2-1 strain (AID 157)
test-settings: S. cerevisiae mec2-1 strain, at 3.7 µM, hits give high values
The panel holds about 79,000 compounds, 15% with a hit somewhere; the sample as a whole holds those more often.
observable: growth inhibition (%)

                                   compound  reported_value
0                   Cc1cc(O)c(C(C)C)cc1SC#N             -25
1  O=S(=O)(NC1CCCC(c2ccccc2)C1)c1ccccc1 (centres undefined)              -2
2  Oc1c2c(c(O)c3ccccc13)C1(N=N2)c2ccccc2Oc2ccccc21              44
3         CC(C)S(=O)(=O)/C=C\S(=O)(=O)C(C)C               2
4             COC(=O)/C(C#N)=C\NC(=S)C(N)=S              24
5  CC(=O)O[C@H]1CC[C@@]2(C)C(=CC[C@@H]3C2CC[C@]2(C)C(=O)NC(=O)CC32)C1 (some centres undefined)             -15
6  CCN(CC)CCNc1ccc2nc(C)n3c4ccc(OC)cc4c(=O)c1c23              39
7  CCCCN(CCC#N)c1ccc(/C=C/c2ccnc3ccccc23)cc1             -10
8  O=C1CSC(c2ccccc2)N1c1ccc(-c2ccc(-n3c(-c4ccccc4)nc4ccccc4c3=O)cc2)cc1 (centres undefined)              -1

###

procedure-summary: NCI Yeast Anticancer Drug Screen. Data for the rad18 strain (AID 177)
test-settings: S. cerevisiae rad18 mutant growth inhibition; at 11.0 µM; hits give high values
About 79,000 compounds went through this panel and 15% of them were active in at least one assay; those are over-represented in the sample as a whole.
observable: growth inhibition (%)

>>> df
                                   compound  readout_unit  reported_value
0                 O=C(C#Cc1ccccc1)Nc1ccccc1             %              -9
1  N#CCCC1C(C#N)C2(Cl)CC1(Cl)C(Cl)=C2Cl (centres undefined)             %               1
2  CC12CCC(CC(=O)/C1=C(/Br)I)C2(C)C (centres undefined)             %              31
3      CN(C)/C(=N/C(=S)Nc1ccccc1)SCc1ccccc1             %               1

###

procedure-summary: NCI Yeast Anticancer Drug Screen. Data for the wt1 strain (AID 149);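 note: 0% = growth of vehicle-treated wt1 cultures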
test-settings: S. cerevisiae wt1 strain (SPY 50644) growth inhibition; at 3.7 µM; hits give high values
Compounds without any hit were thinned out: in the full panel of roughly 79,000, 15% have a hit.
List of growth inhibition values.
observable: growth inhibition (%)

                                   compound  readout_unit  reported_value
0                  OB(O)c1ccccc1C#Cc1ccccc1             %              -2
1  CC(=O)O/N=C1C=C/C(=C(/C#N)c2ccccc2)C=C/1C             %               5
2  CNC(=O)OCc1c(COC(=O)NC)c(C)n(-c2ccc(Br)cc2)c1C             %             -38
3  O=C1CC(C(O)(C(F)(F)F)C(F)(F)Cl)CCC1C(O)(C(F)(F)F)C(F)(F)Cl (stereo not given)             %              44
4  CC1CCC(C2=CSC3CCCCC3N2)CC1 (stereo not given)             %              -2

Value source: PubChem BioAssay (NCI)
